Taken from PubChem BioAssay AID1159580.

Experiment: chemical genetic growth profiling, strain panel (AID 1159580);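 also: tested at 20 µM; growth read once vehicle control cultures reached saturation at 30 °C; 1 = growth at the plate median or of vehicle wells; lower values mean less growth of the strain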
Details: S. cerevisiae deletion strains, growth OD, locus YLR102C, strain apc9, hits give low values
About 2,000 (36%) of roughly 5,500 compounds were called active. About 18% were inconclusive and are not listed. Some of the results follow. Where a SMILES comes first, the peptide text is derived from it.
Quantity kind: normalized growth

• NC1(C(=O)O)CCCC1 = 1
• CC(=O)N[C@@H](CC(=O)O)C(=O)N[C@@H](CCC(=O)O)C(=O)O (Ac-Asp-Glu-OH) = 0.984
• COc1ccc2c(c1)OCC(Cc1ccc(OC)c(O)c1)C2=O (stereo unspecified) = 0.955
• CC(=O)O[C@H]1C[C@@H](OC(C)=O)C(C)(C)C2C[C@@H](OC(C)=O)[C@]3(C)C(CC[C@@]4(C)[C@H](c5ccoc5)OC(=O)[C@H]5O[C@]543)[C@]21C (stereo partly specified) = 0.999
• NCCCC(=O)O = 1.03
• CC1CCC(NC(=O)N(CCCl)N=O)CC1 (stereo unspecified) = 1.01
• CC(=O)C1CCC2C3CCC4C[C@H](O)CCC4(C)C3C[C@H](O)C12C (stereo partly specified) = 1.01
• NCCCCCC(=O)O = 1
• CC(=O)OC1CC(OC(C)=O)C2(C)C(CC(OC(C)=O)C3(C)C2CCC2(C)C(c4ccoc4)OC(=O)C4OC423)C1(C)C (stereo unspecified) = 0.979
• Cc1oncc1C(=O)Nc1ccc(C(F)(F)F)cc1 = 0.983
• CC1OC(O[C@H]2/C=C/C=C/C=C/C=C/C=C/C=C/C=C/[C@H](C)[C@@H](O)[C@@H](C)[C@H](C)OC(=O)CC(O)CC(O)CCC(O)C(O)CC(O)C[C@]3(O)C[C@H](O)C(C(=O)O)C(C2)O3)C(O)[C@H](N)C1O (stereo partly specified) = 1.02
• CCC(=O)OC1[C@@H]2CC3=C4CC(=O)O[C@@H](c5ccoc5)[C@]4(C)CCC3[C@@](C)(C2=O)[C@@H](CC(=O)OC)C1(C)C (stereo partly specified) = 1.02
• O=c1cccc2n1CC1CC2CN2CCCC[C@@H]12 (stereo partly specified) = 0.982
• NC(=O)NC1NC(=O)NC1=O (stereo unspecified) = 0.987
• CNc1ccc(C(=O)CC(O)CCC(C)C2OC(=O)CC(O)CC(=O)CC(O)CC(O)CC(O)CC(O)CC3(O)CC(O)C(C(=O)OC)C(CC(OC4OC(C)C(O)C(N)C4O)/C=C/C=C/C=C/C=C/C=C/C=C/C=C/C2C)O3)cc1 (stereo unspecified) = 0.0963
• COc1cc2c(cc1OC)C1(O)C(=O)c3ccc(O)c(C(=O)O)c3OC1CO2 (stereo unspecified) = 0.975
• CN=C(N)NCCCC(N)C(=O)O (stereo unspecified) = 0.986
• CC(=O)O[C@@H]1CC2C(C)(C)[C@H](O)CC[C@]2(C)C2CC[C@@]3(C)[C@H](c4ccoc4)OC(=O)C4OC43[C@@]21C (stereo partly specified) = 0.989
• C[C@@H]1CC[C@H]2C(C)(C)C3CC12CC[C@@]3(C)O (stereo partly specified) = 0.989
• NCCCCC(=O)O = 0.999
• COc1ccc(CCC(=O)c2c(O)cc(O[C@@H]3O[C@H](CO)C(O)[C@H](O)C3O[C@@H]3O[C@@H](C)[C@H](O)[C@@H](O)[C@H]3O)cc2O)cc1O (stereo partly specified) = 0.973
• COc1ccc2c(=O)c(OC)c(-c3ccccc3)oc2c1 = 0.95
• CC(=O)O[C@@H]1CC2C(C)(C)[C@H](O)CC[C@]2(C)C2CC[C@@]3(C)[C@H](c4ccoc4)OC(=O)[C@H]4O[C@]43[C@@]21C (stereo partly specified) = 1.01
• C[C@]12CCC3C(CC[C@H]4C[C@@H](O)CC[C@]34C)C1CC[C@@H]2O (stereo partly specified) = 1.02
• C=NC(C(=O)NC1C(=O)N2C1SC(C)(C)C2C(=O)O)c1ccccc1 (stereo unspecified) = 1.02
• Cc1onc(-c2ccccc2)c1-c1ccc(S(N)(=O)=O)cc1 = 0.998
• NC1(C(=O)O)CC1 = 1.01
• COc1ccc2oc(-c3ccccc3)c(OC)c(=O)c2c1 = 0.93
• COC(=O)[C@@H]1OC(=O)C2OC23[C@@]1(C)CCC1[C@]2(C)C(C[C@@H](O)[C@]13C)C(C)(C)[C@H](OC(C)=O)C[C@@H]2OC(C)=O (stereo partly specified) = 1
• CC(=O)O[C@H]1CC[C@@]2(C)C(C[C@@H](OC(C)=O)[C@]3(C)C2CC[C@@]2(C)[C@H](c4ccoc4)OC(=O)[C@H]4O[C@]423)C1(C)C (stereo partly specified) = 1.02
• C[C@]12CCC3C(CC[C@H]4C[C@H](O)CC[C@]34C)C1CC[C@@H]2O (stereo partly specified) = 1
